- ASSAY PROTOCOL: Toxicity liver stage against HepG2, at 10uM
- Format: cell-based
- Design: test concentration 10 uM, cell line HepG2-A16-CD81EGFP
- TEST CONTEXT: human, HepG2-A16-CD81EGFP cells; read-out: INHIBITION
Recorded cytotoxicity at 10 µM for the following molecules
Give the number; % is assumed, so skip it.

Some entries whose results are on file:
{"columns": ["MOLECULE", "cytotoxicity at 10 µM / %"],
 "data": [
  ["O=C(CSc1ccc(F)cc1)NS(=O)(=O)c1ccc2c(c1)OCCO2", -29.1],
  ["Cc1cc(C)n(CC(=O)N2CCC(Nc3cccnn3)CC2)n1", -0.397],
  ["CN(C)c1cccc(C2CCN(C3COCC3O)CC2)n1 (centres undefined)", -13.9]
]}

Consider the molecule shown here: COCc1nc(C(=O)N2CCCC2c2cc(C)no2)cs1 (centres undefined) What is its recorded cytotoxicity at 10 µM?
-12.9

Consider the molecule shown here: COc1cc(CNC(C)Cn2cccn2)cc(Cl)c1OC (centres undefined) What is its recorded cytotoxicity at 10 µM?
-1.14

Consider the molecule shown here: `CN1CCO[C@H]2CN(C(=O)c3ccoc3)C[C@H]21` What is its recorded cytotoxicity at 10 µM?
-80.6

Consider the molecule shown here: `CC(=O)c1ccc(C(=O)N2C[C@@H](CN3CCCC3)[C@@H](CO)C2)cc1` What is its recorded cytotoxicity at 10 µM?
-0.434

Consider the molecule shown here: `CCOc1cc(C)ccc1NC(=O)N(C)Cc1cnn(C)c1` What is its recorded cytotoxicity at 10 µM?
-7.15

###

Recorded cytotoxicity at 10 µM for the following compounds
- ASSAY PROTOCOL: Toxicity liver stage against HepG2, at 10uM
- Format: cell-based
- Design: test concentration 10 uM, cell line HepG2-A16-CD81EGFP
- TEST CONTEXT: human, HepG2-A16-CD81EGFP cells; read-out: INHIBITION

Some entries whose results are on file:
{"columns": ["COMPOUND", "RECORDED ENDPOINT", "RESULT"],
 "data": [
  ["COc1ccc2[nH]cc(-c3ccnc(NC4CCCC4)n3)c2c1", "cytotoxicity at 10 µM", "-6.33%"],
  ["COc1ccc(N2CCC(N(C)C(C)C(=O)N(C)C)CC2)cc1 (centres undefined)", "cytotoxicity at 10 µM", "11%"],
  ["CC(C)CS(=O)(=O)N1CCC2(CN(c3cccc(F)c3)C(=O)CN2C)C1 (centres undefined)", "cytotoxicity at 10 µM", "-75.2%"],
  ["Cn1cc(C2CCCN2C(=O)CCCc2cccs2)cn1 (centres undefined)", "cytotoxicity at 10 µM", "-2.12%"],
  ["CC(C(=O)Nc1ccc2ccccc2c1)N1CCC(n2ccnc2)CC1 (centres undefined)", "cytotoxicity at 10 µM", "-4%"],
  ["CC(=O)NCCc1cc(N2CCN(C(C)=O)CC2)nc(C2CC2)n1", "cytotoxicity at 10 µM", "2.24%"],
  ["Cn1cnnc1C1CCCN(C(=O)c2cc(Cl)c(Cl)n2C)C1 (centres undefined)", "cytotoxicity at 10 µM", "-4.9%"],
  ["Cc1noc(C(C)N2CCN(CC(=O)N3CCOCC3)CC2)n1 (centres undefined)", "cytotoxicity at 10 µM", "-8.41%"],
  ["COc1ccc(CN(Cc2cc(C)no2)C2CC2)cc1", "cytotoxicity at 10 µM", "-3.71%"],
  ["CC(C)N(C)Cc1noc2c1CN(C(=O)c1ccsc1)CC2", "cytotoxicity at 10 µM", "4.89%"]
]}

Consider the compound shown here: `CN(c1cccnc1N1CCCC1)S(=O)(=O)c1cnn(C)c1` What is its recorded cytotoxicity at 10 µM?
-4.28%

Consider the compound shown here: `CC(C)c1cc(C(=O)N2CCN(Cc3ccco3)CC2)n[nH]1` What is its recorded cytotoxicity at 10 µM?
2.18%

Consider the compound shown here: `O=C(c1cccc(F)c1)N1C[C@@H](CN2CCCCC2)[C@@H](CO)C1` What is its recorded cytotoxicity at 10 µM?
3.78%

###

- ASSAY PROTOCOL: Toxicity liver stage against HepG2, at 10uM
- Assay type: cell-based
- Design: test concentration 10 uM, cell line HepG2-A16-CD81EGFP
- TEST CONTEXT: human, HepG2-A16-CD81EGFP cells; read-out: INHIBITION
Recorded cytotoxicity at 10 µM for the following compounds
Give the number; % is assumed, so skip it.

{"columns": ["COMPOUND", "cytotoxicity at 10 µM / %"],
 "data": [
  ["OCCOc1cc(F)ccc1NCc1cccc(F)c1F", -6.14]
]}

Consider the compound shown here: COC(=O)CCCn1ccnc1C(C)c1ccccc1 (configuration not stated) What is its recorded cytotoxicity at 10 µM?
-6.73

Consider the compound shown here: NC(=O)c1nc(CN2CCOC(C(F)(F)F)C2)no1 (configuration not stated) What is its recorded cytotoxicity at 10 µM?
-3.39

###

- ASSAY PROTOCOL: Toxicity liver stage against HepG2, at 10uM
- Format: cell-based
- Design: test concentration 10 uM, cell line HepG2-A16-CD81EGFP
- TEST CONTEXT: human, HepG2-A16-CD81EGFP cells; read-out: INHIBITION
RECORDED ENDPOINT: cytotoxicity at 10 µM
A complete answer gives the number and then names the unit.

Some entries whose results are on file:
{"columns": ["COMPOUND", "cytotoxicity at 10 µM"],
 "data": [
  ["CN(CCc1noc(C2CC2)n1)C(=O)CN1C(=O)COc2ccccc21", "-141%"],
  ["CCOCCc1nc(CCc2ccccc2)n[nH]1", "10.3%"],
  ["O=C1NCCN1C1CCN(Cc2nc(-c3ccc(F)cc3)no2)CC1", "44.1%"],
  ["CCS(=O)(=O)N1CCc2cc(C(=O)NC)c(NCC(C)C)nc2CC1", "-149%"],
  ["CCCN1CCN(C(=O)c2cnn(-c3ccccc3F)c2)CC1", "0.313%"]
]}

Consider the compound shown here: CC(C)N1CCn2c(COCC3CCOCC3)cnc2C1C (stereo not drawn) What is its recorded cytotoxicity at 10 µM?
8.22%

Consider the compound shown here: CC1(C(=O)NCc2cccnc2Oc2ccc(F)c(F)c2)CCCNC1 (stereo not drawn) What is its recorded cytotoxicity at 10 µM?
-0.37%

Consider the compound shown here: C/C(Cl)=C/CNC(=O)C1CCC2(CC1)CN(C)C(=O)c1ccccc1O2 (stereo not drawn) What is its recorded cytotoxicity at 10 µM?
4.52%

Consider the compound shown here: `O=C(C1CCS(=O)(=O)CC1)N1C[C@@H]2CC[C@H]1CN(Cc1ccccc1)C2` What is its recorded cytotoxicity at 10 µM?
-2.22%

Consider the compound shown here: CC(NC(=O)N(C)CCCOc1ccccc1)c1nncn1C (stereo not drawn) What is its recorded cytotoxicity at 10 µM?
-5.4%

Consider the compound shown here: `CN(C)CCN(Cc1ccc(C#N)cc1)C(=O)c1ccn(C)c(=O)c1` What is its recorded cytotoxicity at 10 µM?
16.8%

Consider the compound shown here: `O=S1(=O)C[C@@H]2[C@H](C1)N(Cc1cc(F)cc(F)c1)CCN2CCO` What is its recorded cytotoxicity at 10 µM?
-2.61%

Consider the compound shown here: `CNC(=O)[C@@H]1C[C@H]2CN(C(=O)c3ccccn3)C[C@H]2N1C(C)C` What is its recorded cytotoxicity at 10 µM?
7.45%

Consider the compound shown here: `COc1ccsc1C(=O)NC1CCN(c2ccc(C#N)cc2)CC1` What is its recorded cytotoxicity at 10 µM?
-1.03%

Consider the compound shown here: `O=C(CCNS(=O)(=O)c1cccnc1)N1CCCCC1` What is its recorded cytotoxicity at 10 µM?
-6.13%

Consider the compound shown here: COc1ccc(-n2ncc3c2NC(=O)CSC3CC(C)C)cc1 (stereo not drawn) What is its recorded cytotoxicity at 10 µM?
-0.418%

Consider the compound shown here: `COc1ccc(OC)c(NC(=O)c2nc3ccccc3n(C)c2=O)c1` What is its recorded cytotoxicity at 10 µM?
-4.71%

###

- ASSAY PROTOCOL: Toxicity liver stage against HepG2, at 10uM
- Format: cell-based
- Parameters: test concentration 10 uM, cell line HepG2-A16-CD81EGFP
- TEST CONTEXT: human, HepG2-A16-CD81EGFP cells; read-out: INHIBITION
RECORDED ENDPOINT: cytotoxicity at 10 µM (%)
Give the number; % is assumed, so skip it.

Some entries whose results are on file:
{"columns": ["MOLECULE", "cytotoxicity at 10 µM, %"],
 "data": [
  ["COCCNC(=O)Nc1ccc(-c2nc(C(C)C)no2)cc1", 0.0793],
  ["CC(C)(O)c1cc(CC2(NCc3ccco3)COC2)no1", -1.7],
  ["CC1COCCN1Cc1nc(C(C)(C)C)no1 (centres undefined)", 4.87],
  ["CN(Cc1ccco1)Cc1cncc2c1CCN(S(C)(=O)=O)C2", 2.11],
  ["CN1CCN([C@@H]2CN(C(=O)CCOc3ccccc3)C[C@H]2O)CC1", 1.17],
  ["O=C(C1CC1)N1CCN(Cc2coc(-c3ccc(Cl)cc3)n2)CC1", 17.3],
  ["CC(c1nc(C2CC2)no1)N1CCN(CCCN2CCCC2=O)CC1 (centres undefined)", -13.4],
  ["O=C(c1ccco1)N1CCC[C@]2(C[C@H](Oc3ncccc3F)CO2)C1", 2.49]
]}

Consider the molecule shown here: `Cc1cc(CN2CC[C@H]3C[C@@H](c4nc(C5CC5)cs4)O[C@@H]3C2)no1` What is its recorded cytotoxicity at 10 µM?
-104

Consider the molecule shown here: `CNC(=O)c1ccc(N(C)C2CCC2)nn1` What is its recorded cytotoxicity at 10 µM?
4.49

Consider the molecule shown here: `CCCC(=O)N1CCC([C@@H]2C[C@H](C(F)(F)F)n3nc(C)cc3N2)CC1` What is its recorded cytotoxicity at 10 µM?
-16.1

Consider the molecule shown here: COCCN1C(=O)CCC12CCCN(Cc1ccccc1F)C2 (centres undefined) What is its recorded cytotoxicity at 10 µM?
3.64

Consider the molecule shown here: `O=C(CCc1nccs1)N1CCN(c2cccnn2)CC1` What is its recorded cytotoxicity at 10 µM?
-2.84

Consider the molecule shown here: `Cc1nnc(NC(=O)NCc2cccnc2N(C)C)s1` What is its recorded cytotoxicity at 10 µM?
-10.3

Consider the molecule shown here: O=C(CN1CCS(=O)(=O)CC1)NC1CCCOc2ccccc21 (centres undefined) What is its recorded cytotoxicity at 10 µM?
4.81

Consider the molecule shown here: CC(Cn1cc(Br)cn1)C(=O)Nc1ccc(Cl)cn1 (centres undefined) What is its recorded cytotoxicity at 10 µM?
34

Consider the molecule shown here: `CN(CCOc1ccccc1Cl)S(=O)(=O)N1CCOCC1` What is its recorded cytotoxicity at 10 µM?
-3.51

Consider the molecule shown here: `CCOC(=O)N1CCC(n2cc3[nH]cccc-3c2=O)CC1` What is its recorded cytotoxicity at 10 µM?
3.6

Consider the molecule shown here: `O=C(NC1CC1)c1cnc2n1CCCC2` What is its recorded cytotoxicity at 10 µM?
-6.81

Consider the molecule shown here: `COC(=O)N1C[C@@H]2CC[C@H]1CN(Cc1ccncc1)C2` What is its recorded cytotoxicity at 10 µM?
-10

Consider the molecule shown here: CCc1nnc2n1CC(CNCc1ccncc1)CC2 (centres undefined) What is its recorded cytotoxicity at 10 µM?
-15.1

Consider the molecule shown here: `Cn1nnnc1SCC1(O)CCCCC1` What is its recorded cytotoxicity at 10 µM?
1.06

Consider the molecule shown here: `c1csc(CN2CC3(CCN(Cc4ccsc4)C3)C2)n1` What is its recorded cytotoxicity at 10 µM?
-2.65

Consider the molecule shown here: `CN1[C@@H](C(=O)NCC2CC2)C[C@@H]2CN(Cc3ccco3)C[C@@H]21` What is its recorded cytotoxicity at 10 µM?
4.68
